# System: S. cerevisiae tim10 strain, luminescence counterscreen
# test protocol: TIM10 strain luminescence inhibitors – S. cerevisiae, uHTS hits, counter-screen for tim23-1 inhibitor project, dose response (AID 504672);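 note: yeast grew roughly 22 hours at 25 °C before the luminescence read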
The source made the active and inactive calls. Cut-off read from the data, not from the text of the source: active = IC50 below about 71 µM; inactive = the rest.
Thanks in advance; please answer with one of these: true = active, false = inactive

[Q] Query: recorded result category for C[C@@]12C(=O)Nc3ccc(Br)cc3C(=O)N1[C@H]1c3ccccc3OC[C@@H]1[C@@H]2c1ccccc1 in this test
[A] true

[Q] Query: recorded result category for CC1c2[nH]c3ccccc3c2CCN1C(=O)Nc1ccccc1 (centres undefined) in this test
[A] true

[Q] Query: recorded result category for CCC(C)c1ccc(NC(=O)C2CC3CCC2C3)cc1 (centres undefined) in this test
[A] true

[Q] Query: recorded result category for O=Cc1cccnc1SCc1ccccc1 in this test
[A] true

[Q] Query: recorded result category for c1ccc(-c2ncc(-c3ccn[nH]3)s2)cc1 in this test
[A] true

[Q] Query: recorded result category for CCOC(=O)c1cccc(OC(=O)CCNC(=O)c2ccc(Cl)cc2)c1 in this test
[A] true

[Q] Query: recorded result category for Cc1ccc2occ(C(=O)c3ccco3)c(=O)c2c1 in this test
[A] true

[Q] Query: recorded result category for COc1ccc(C(C[N+](=O)[O-])c2c(-c3ccccc3)cc3ccccn23)cc1 (centres undefined) in this test
[A] true

[Q] Query: recorded result category for Cc1ccc(NC(=O)c2nc(S(=O)(=O)Cc3ccccc3C)ncc2Cl)cc1C in this test
[A] true

[Q] Query: recorded result category for Cc1csc2nc(O)c(C(=O)NCCC3=CCCCC3)c(=O)n12 in this test
[A] true

[Q] Query: recorded result category for CCc1cccc2c(C(=O)CCl)c[nH]c12 in this test
[A] true

[Q] Query: recorded result category for O=c1oc(-c2ccc(Br)o2)nc2ccccc12 in this test
[A] true

[Q] Query: recorded result category for CCc1ccc(NC(=O)/C(C#N)=C/c2ccncc2)cc1 in this test
[A] true

[Q] Query: recorded result category for COCCNC(=O)/C(C#N)=C/c1ccc(OCc2ccccc2)cc1 in this test
[A] true

[Q] Query: recorded result category for COc1cc2c(cc1OC)/C(=C/c1ccc(Cl)cc1)C(=O)OC2 in this test
[A] true

[Q] Query: recorded result category for Cc1ccc(S(=O)(=O)n2ccc(OC(=O)c3cccs3)n2)cc1 in this test
[A] true

[Q] Query: recorded result category for O=C1OC(c2ccccc2)=N/C1=C\C=C\c1ccco1 in this test
[A] false

[Q] Query: recorded result category for C/C=C/c1ccc(OCCOc2cc(C=O)ccc2OC)c(OC)c1 in this test
[A] true

[Q] Query: recorded result category for O=C(Nc1ccccc1N(C(=O)c1ccco1)S(=O)(=O)c1cccs1)c1ccco1 in this test
[A] true

[Q] Query: recorded result category for Cc1ccccc1[C@@]1(C)ON(c2ccccc2C(F)(F)F)C1=O in this test
[A] true

[Q] Query: recorded result category for Cc1ccc(-c2nn(-c3ccccc3)cc2NC(=O)CCl)cc1 in this test
[A] true

[Q] Query: recorded result category for Cc1ccc(CS(=O)(=O)c2ncc(Cl)c(C(=O)Nc3ccc(OC(F)F)cc3)n2)cc1 in this test
[A] true

[Q] Query: recorded result category for CCOC(=O)c1c(N)sc(C(=O)Nc2ccccc2)c1C in this test
[A] true

[Q] Query: recorded result category for Cn1c(=O)c(C(=O)Nc2ncccn2)c(O)c2ccccc21 in this test
[A] true

[Q] Query: recorded result category for Cc1cc(Nc2ccccc2)nn1C(=O)c1ccccc1 in this test
[A] true

[Q] Query: recorded result category for CCOC(=O)c1c(C)oc2c1c(C(c1cccnc1)N1CCCCC1)c(O)c1ccccc12 (centres undefined) in this test
[A] true

[Q] Query: recorded result category for Oc1ccc(Br)cc1/C=N/Nc1ccccn1 in this test
[A] true

[Q] Query: recorded result category for O=C(Nc1ccc(-c2cn3ccccc3n2)cc1)c1ccco1 in this test
[A] true

[Q] Query: recorded result category for CC(=O)Nc1ncnc2c1c(-c1ccc(Cl)cc1)nn2C(C)(C)C in this test
[A] true

[Q] Query: recorded result category for O=C(Nc1ccc2nc(-c3ccc(Br)o3)[nH]c2c1)c1cccs1 in this test
[A] true

[Q] Query: recorded result category for COCCn1c(C)cc(C(=O)COC(=O)c2ccc([N+](=O)[O-])o2)c1C in this test
[A] true

[Q] Query: recorded result category for CC(C)Cn1cnc2c(c(-c3ccccc3)c(-c3ccccc3)n2Cc2ccco2)c1=N in this test
[A] true

[Q] Query: recorded result category for CSc1nnc(C(C)(C)C)c(=O)n1/N=C/c1ccccc1 in this test
[A] true

[Q] Query: recorded result category for O=C(NCCCc1ccccc1)c1c(O)nc2sccn2c1=O in this test
[A] true

[Q] Query: recorded result category for O=C(CSc1cccs1)Nc1ccc2ccccc2c1 in this test
[A] true

[Q] Query: recorded result category for COc1ccc(C(=O)N/N=C\c2coc3ccc(Cl)cc3c2=O)cc1 in this test
[A] true

[Q] Query: recorded result category for CN(C)/C=C1/C=C(c2ccccc2)OC1=O in this test
[A] true

[Q] Query: recorded result category for Cc1ccc2nc(-c3ccc(N)cc3)sc2c1 in this test
[A] true

[Q] Query: recorded result category for O=C(N/N=C/c1ccco1)c1cc2ccccc2o1 in this test
[A] true
